# reported Kd; entries follow
Biological target: human IL-6 (human, UniProt P05231 30-212)
Sequence (P05231 30-212 limits assumed): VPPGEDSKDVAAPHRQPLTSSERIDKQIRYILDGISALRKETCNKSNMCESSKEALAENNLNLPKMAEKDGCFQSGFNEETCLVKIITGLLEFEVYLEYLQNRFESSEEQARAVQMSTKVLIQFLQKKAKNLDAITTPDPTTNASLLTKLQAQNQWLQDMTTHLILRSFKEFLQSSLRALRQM
Assay: SPR (Biacore), supernatant antibody on Protein A chip, IL-6 flowed, 37 C
Method: Antibodies were captured on a Protein A chip (GE) by injecting 1:20 cell supernatant dilutions at 10 μL/min for 60 seconds. […] The sensor chip was regenerated by a 60 seconds injection of 10 mM Glycine pH 1.7 at the flow rate of 50 μL/min. […] For this setup, 1 μg/mL of purified antibody was injected over a Protein A chip at 10 μL/min for 25 seconds. […] The sensor chip was regenerated by a 60 seconds injection of 10 mM Glycine pH 1.7 at flow rate of 50 μL/min. […]
Kindly answer with a numeric value in nM, unit omitted.

These solved cases illustrate the format of a correct answer.
anti-IL-6 antibody, heavy chain T65P, G66D / light chain M32L, M50D, N52S, M88Q (antibody, human IgG1, V domains shown, Human IgG1) VH: EVQLVESGGGLVQPGGSLRLSCAASGFTFSPFAMSWVRQAPGKGLEWVAKISPGGSWTYYSDTVPDRFTFSLDTSKSTAYLQMNSLRAEDTAVYYCARQLWGYYALDIWGQGTLVTVSS VL: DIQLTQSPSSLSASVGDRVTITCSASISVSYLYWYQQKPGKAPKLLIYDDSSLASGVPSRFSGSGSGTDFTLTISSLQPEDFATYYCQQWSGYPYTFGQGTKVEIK ... 0.601
anti-IL-6 antibody, heavy chain T65Q, G66D / light chain M32L, M50D, N52S, M88Q (antibody, human IgG1, V domains shown, Human IgG1) VH: EVQLVESGGGLVQPGGSLRLSCAASGFTFSPFAMSWVRQAPGKGLEWVAKISPGGSWTYYSDTVQDRFTFSLDTSKSTAYLQMNSLRAEDTAVYYCARQLWGYYALDIWGQGTLVTVSS VL: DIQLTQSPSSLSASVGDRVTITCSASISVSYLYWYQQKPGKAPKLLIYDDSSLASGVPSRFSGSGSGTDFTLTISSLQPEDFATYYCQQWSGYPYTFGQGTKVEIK ... 0.258
anti-IL-6 antibody, heavy chain I51G, G66D / light chain M32L, M50D, N52S, M88Q (antibody, human IgG1, V domains shown, Human IgG1) VH: EVQLVESGGGLVQPGGSLRLSCAASGFTFSPFAMSWVRQAPGKGLEWVAKGSPGGSWTYYSDTVTDRFTFSLDTSKSTAYLQMNSLRAEDTAVYYCARQLWGYYALDIWGQGTLVTVSS VL: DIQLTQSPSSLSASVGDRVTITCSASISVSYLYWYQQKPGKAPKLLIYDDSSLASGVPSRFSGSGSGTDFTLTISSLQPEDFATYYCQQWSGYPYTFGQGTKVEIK ... 0.652
anti-IL-6 antibody, heavy chain I51W, G66D / light chain M32L, M50D, N52S, M88Q (antibody, human IgG1, V domains shown, Human IgG1) VH: EVQLVESGGGLVQPGGSLRLSCAASGFTFSPFAMSWVRQAPGKGLEWVAKWSPGGSWTYYSDTVTDRFTFSLDTSKSTAYLQMNSLRAEDTAVYYCARQLWGYYALDIWGQGTLVTVSS VL: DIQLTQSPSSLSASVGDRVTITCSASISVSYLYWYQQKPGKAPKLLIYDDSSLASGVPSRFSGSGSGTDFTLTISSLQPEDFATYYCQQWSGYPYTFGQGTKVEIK ... 4.84

## Task Look at this binder and give its reported Kd. anti-IL-6 antibody, heavy chain T65H, G66D / light chain M32L, M50D, N52S, M88Q (antibody, human IgG1, V domains shown, Human IgG1) VH: EVQLVESGGGLVQPGGSLRLSCAASGFTFSPFAMSWVRQAPGKGLEWVAKISPGGSWTYYSDTVHDRFTFSLDTSKSTAYLQMNSLRAEDTAVYYCARQLWGYYALDIWGQGTLVTVSS VL: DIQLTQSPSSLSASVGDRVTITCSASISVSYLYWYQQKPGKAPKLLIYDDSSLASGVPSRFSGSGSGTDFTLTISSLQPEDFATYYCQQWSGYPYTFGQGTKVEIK
## Result 0.297
